# tested target: Somatostatin receptor type 5 (Homo sapiens, UniProt P35346)
# Sequence (P35346 whole entry): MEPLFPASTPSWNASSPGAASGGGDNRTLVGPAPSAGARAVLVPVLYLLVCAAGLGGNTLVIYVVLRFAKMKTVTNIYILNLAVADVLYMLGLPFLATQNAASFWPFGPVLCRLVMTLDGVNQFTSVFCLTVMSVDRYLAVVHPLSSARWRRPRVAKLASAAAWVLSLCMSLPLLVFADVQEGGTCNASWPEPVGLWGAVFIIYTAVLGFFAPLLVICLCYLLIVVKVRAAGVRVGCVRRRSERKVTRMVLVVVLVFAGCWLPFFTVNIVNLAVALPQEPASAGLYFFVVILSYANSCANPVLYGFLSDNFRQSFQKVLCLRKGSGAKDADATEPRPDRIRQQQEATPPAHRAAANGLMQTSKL
# protocol summary: Agonist activity at human SST5 expressed in CHO-K1 cells assessed as reduction in NKH477-induced intracellular cAMP level
quantity name: EC50 (nM)
Output spec: scalar in nM, unitless text.

Ask | Reported EC50, molecule "Cc1c(F)ccc2[nH]c(-c3cncc(-c4cc(F)cc(C#N)c4)c3N3CC[C@H](N)C3)nc12" : ____
Reply | 0.65

Ask | Reported EC50, molecule "Cc1cccc(-c2cncc(-c3nc4c(F)cc(F)cc4[nH]3)c2N2CC(CN)C2)c1" : ____
Reply | 2.3

Ask | Reported EC50, molecule "Cc1cc(F)cc(-c2cncc(-c3nc4c(Cl)cccc4[nH]3)c2N2CC(CN)C2)c1" : ____
Reply | 1.2

Ask | Reported EC50, molecule "Cc1cc(F)cc(-c2cncc(-c3nc4c(F)cc(F)cc4[nH]3)c2N2CC(C)(CN)C2)c1" : ____
Reply | 2.3

Turning to the following molecule.
Ask | Reported EC50, molecule N#Cc1cccc(-c2cncc(-c3nc4c(F)cccc4[nH]3)c2N2CCC(N)(CO)C2)c1 (stereo not given) : ____
Reply | 1

* * *

# tested target: Somatostatin receptor type 5 (Homo sapiens, UniProt P35346)
# protocol summary: Agonist activity at human SST5 expressed in CHO-K1 cells assessed as reduction in NKH477-induced intracellular cAMP level
quantity name: log10 EC50 (log10 of the value in nM)
Field: value | Transform: log10 | Quantity: EC50 | Unit: nM

Below: 4 compounds and their reported log10 EC50.
Ask | Reported log10 EC50, compound "N#Cc1cccc(-c2cncc(-c3nc4c(F)cc(F)cc4[nH]3)c2N2CC(CN)C2)c1" : ____
Reply | 0.41

Ask | Reported log10 EC50, compound "NCC1CN(c2c(-c3cccc(F)c3)cncc2-c2nc3c(F)cc(F)cc3[nH]2)C1" : ____
Reply | 0.79

Ask | Reported log10 EC50, compound "N#Cc1cccc(-c2cncc(-c3nc4c(F)cccc4[nH]3)c2N2CC[C@H](N)C2)c1" : ____
Reply | -0.26

Ask | Reported log10 EC50, compound CC(N)C1CN(c2c(-c3cc(F)cc(C(F)(F)F)c3)cncc2-c2nc3c(F)cc(F)cc3[nH]2)C1 (stereo not given) : ____
Reply | -0.57

Turning to the following compound.
Ask | Reported log10 EC50, compound "Cc1cc(F)cc(-c2cncc(-c3nc4c(F)cc(F)cc4[nH]3)c2N2CC(CN)C2)c1" : ____
Reply | 0.34

* * *

# tested target: Cytochrome P450 2D6 (Homo sapiens, UniProt P10635)
# Sequence (P10635 whole entry): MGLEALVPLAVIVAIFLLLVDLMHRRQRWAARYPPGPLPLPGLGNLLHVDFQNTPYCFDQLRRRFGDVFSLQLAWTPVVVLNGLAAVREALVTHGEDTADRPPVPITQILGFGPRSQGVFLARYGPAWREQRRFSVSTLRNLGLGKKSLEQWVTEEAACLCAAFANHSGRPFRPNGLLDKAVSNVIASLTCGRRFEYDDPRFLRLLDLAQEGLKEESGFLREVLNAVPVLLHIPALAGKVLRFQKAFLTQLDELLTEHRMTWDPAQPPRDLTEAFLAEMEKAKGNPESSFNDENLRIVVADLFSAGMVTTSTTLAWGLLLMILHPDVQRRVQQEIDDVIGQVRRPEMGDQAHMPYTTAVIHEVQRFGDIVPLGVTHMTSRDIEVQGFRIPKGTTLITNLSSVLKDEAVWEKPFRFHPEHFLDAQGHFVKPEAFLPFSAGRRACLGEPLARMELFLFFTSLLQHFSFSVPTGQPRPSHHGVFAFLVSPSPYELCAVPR
# protocol summary: Inhibition of CYP2D6 (unknown origin)
# Assay type: ADME
Reported pIC50 values follow for various molecules
Formally, pIC50 is defined as -log10 of the concentration c, with c in mol/L.

Ask | Reported pIC50, molecule "Cc1cccc2[nH]c(-c3cncc(-c4cc(F)cc(C#N)c4)c3N3CC[C@H](N)C3)nc12" : ____
Reply | 5.00

Turning to the following molecule.
Ask | Reported pIC50, molecule "Cc1ccc(F)c2[nH]c(-c3cncc(-c4cc(F)cc(C#N)c4)c3N3CC[C@H](N)C3)nc12" : ____
Reply | 5.28

* * *

# protocol summary: Metabolic stability in rat liver microsomes assessed as half life
# Type: ADME, Microsome
quantity name: half-life

Ask | Reported half-life, compound "Cc1cccc2[nH]c(-c3cncc(-c4cc(F)cc(C#N)c4)c3N3CC[C@H](N)C3)nc12" : ____
Reply | > 11.6 h
